The measured values listed here are drawn from the array DNA melting data of Ke et al. (doi:10.1101/2024.01.08.574731).

# assay_comment: melting temperature; fluorescence melt of hairpins on a sequencing array, two-state fit, raised by 9.35 °C to match UV melts
# experimental_parameters: sodium 0.088 M
Records here are stratified by Tm; strata: low bracket = under 40 °C, middle bracket = from 40 °C up to 50 °C, high bracket = 50 °C and over

{"sequence_content": "GCTAAGGGAAACCTTAGC (((((((....)))))))", "label_class": "high bracket"}
{"sequence_content": "CGACTCGGAAACGAATCG (((.(((....))).)))", "label_class": "middle bracket"}
{"sequence_content": "GATCGTCGCACGATC ((((((...))))))", "label_class": "high bracket"}
{"sequence_content": "GGACGGCGAAAGCCCTCC (((.(((....))).)))", "label_class": "middle bracket"}
{"sequence_content": "GATCACTGTCGTGATC ((((((....))))))", "label_class": "high bracket"}
{"sequence_content": "GCTAAGCGAAAGCGTAGC ((((.((....)).))))", "label_class": "high bracket"}
{"sequence_content": "GCATACGAAAGTAATTGC ((((((....)))..)))", "label_class": "low bracket"}
{"sequence_content": "GCATGCACGAAAGTGTGC (((..(((....))))))", "label_class": "middle bracket"}
{"sequence_content": "GCAACGCGAAAGCCATGC (((..((....))..)))", "label_class": "low bracket"}
{"sequence_content": "GGCCCACGAAAGTGAGCC (((.(((....))).)))", "label_class": "high bracket"}
{"sequence_content": "GTAGTACGAAAGTATTAC (((.(((....))).)))", "label_class": "middle bracket"}
{"sequence_content": "GCGTTCGAAAGAAAGCGC ((((((....)))..)))", "label_class": "high bracket"}

###

# assay_comment: folding enthalpy; higher = less favourable; fluorescence melt of hairpins on a sequencing array, two-state fit
# experimental_parameters: sodium 0.088 M
result_type: folding enthalpy (kcal/mol)

{"sequence_content": "GGATTAGCGAAAGCTTCC (((..(((....))))))", "measured_result": -11.1}
{"sequence_content": "GCGACAATCGC ((((...))))", "measured_result": -13.9}
{"sequence_content": "GATCTTATCAAAGATC ((((((....))))))", "measured_result": -33.1}
{"sequence_content": "GCGACTGGAAACAGCCAC (.(.(((....))).).)", "measured_result": -12.2}
{"sequence_content": "GCCGTGGCGAAAGCCGGC (((..(((....))))))", "measured_result": -21.4}
{"sequence_content": "CTAGTGAAAACTAG (((((....)))))", "measured_result": -15}
{"sequence_content": "GTGCCACCGAAAGGTCAC (((..(((....))))))", "measured_result": -9.49}
{"sequence_content": "GTTGACGAAAGTCATAAC ((((((....)))..)))", "measured_result": -12.9}
{"sequence_content": "GCGAACGAAAGTTAACGC ((((((....)))..)))", "measured_result": -20.6}
{"sequence_content": "GCAAATGGAAACGTTTGC (((((.(....).)))))", "measured_result": -38.1}
{"sequence_content": "GTGACTACGAAAGTACAC (((..(((....))))))", "measured_result": -6.75}

###

# assay_comment: melting temperature; fluorescence melt of hairpins on a sequencing array, two-state fit, raised by 9.35 °C to match UV melts
# experimental_parameters: sodium 0.088 M
Threshold check on Tm: strictly below 50 °C is Criterion met; on or above 50 °C is Criterion not met.

{"sequence_content": "GATCTTGCCAAAGATC ((((((....))))))", "label_class": "Criterion not met"}
{"sequence_content": "GTCCTACCGAAAGGTGAC (((..(((....))))))", "label_class": "Criterion met"}
{"sequence_content": "GCTGACCGAAAGGTGAGC (((.(((....))).)))", "label_class": "Criterion not met"}
{"sequence_content": "GATCCTCGCAGGATC ((((((...))))))", "label_class": "Criterion not met"}
{"sequence_content": "GTAGCTGGAAACGGTTAC (((.(.(....).).)))", "label_class": "Criterion met"}
{"sequence_content": "GGACGGGCGAAAGCCTCC (((..(((....))))))", "label_class": "Criterion met"}
{"sequence_content": "GATCAAAAGGTTGATC ((((((....))))))", "label_class": "Criterion met"}
{"sequence_content": "GATCACGGAAACGTGACC (.(((((....))))).)", "label_class": "Criterion met"}
{"sequence_content": "GTGCGCGGAAACGTGCGC (.((.((....)).)).)", "label_class": "Criterion not met"}
{"sequence_content": "GCTACGCGAAAGCCGAGC (((..((....))..)))", "label_class": "Criterion met"}
{"sequence_content": "GACCAAGGAAACTTGGTC (((((((....)))))))", "label_class": "Criterion not met"}
{"sequence_content": "GCATCAGGAAACTGGTGC (((.(((....))).)))", "label_class": "Criterion not met"}
{"sequence_content": "GATCGGTAACCGATC ((((((...))))))", "label_class": "Criterion not met"}
{"sequence_content": "GCTCACGAAAGTGAGAGC ((((((....)))..)))", "label_class": "Criterion not met"}
{"sequence_content": "GAGTTGGGAAACCAATTC ((.((((....)))).))", "label_class": "Criterion met"}
{"sequence_content": "CGCGGAACAGTCCGCG ((((((....))))))", "label_class": "Criterion not met"}
{"sequence_content": "GATCGCTCAAGCGATC ((((((....))))))", "label_class": "Criterion not met"}
{"sequence_content": "TCCAGGAAACTGGA (((((....)))))", "label_class": "Criterion met"}
{"sequence_content": "CGAACCGGAAACGGATCG (((.(((....))).)))", "label_class": "Criterion not met"}
{"sequence_content": "GTGACCCGAAAGGGCCAC (((.(((....))).)))", "label_class": "Criterion not met"}
{"sequence_content": "GTCCCTCGAAAGAGAGAC (((.(((....))).)))", "label_class": "Criterion met"}
{"sequence_content": "GACTCAGGAAACTGAATC ((.((((....)))).))", "label_class": "Criterion met"}
{"sequence_content": "GCGAGCGATCGC ((((....))))", "label_class": "Criterion not met"}
{"sequence_content": "GATCTACTTGTAGATC ((((((....))))))", "label_class": "Criterion not met"}
{"sequence_content": "GCGTTTGGAAACAAACGC (((((((....)))))))", "label_class": "Criterion not met"}
{"sequence_content": "GGTGACGAAAGTCAACC ((((((....))).)))", "label_class": "Criterion not met"}
{"sequence_content": "GCTTCTGCGAAAGCAAGC (((..(((....))))))", "label_class": "Criterion met"}
{"sequence_content": "GTGATCGAAAGATCCCAC ((((((....)))..)))", "label_class": "Criterion met"}
{"sequence_content": "GTAGGGGGAAACCCTTAC (((.(((....))).)))", "label_class": "Criterion met"}
{"sequence_content": "GAGGCCGAAAGGCACTC ((((((....))).)))", "label_class": "Criterion not met"}
{"sequence_content": "GATCGGACACCCGATC ((((((....))))))", "label_class": "Criterion not met"}
{"sequence_content": "GCAGAAGAAATTCTGC ((((((....))))))", "label_class": "Criterion not met"}
{"sequence_content": "GGCCTTGGAAACGAGGCC (((((.(....).)))))", "label_class": "Criterion not met"}
{"sequence_content": "GAATGCGCGAAAGCGTTC (((..(((....))))))", "label_class": "Criterion met"}
{"sequence_content": "GATCCGAATACGGATC ((((((....))))))", "label_class": "Criterion not met"}
{"sequence_content": "GACTACGAAAGTATAGTC ((((((....)))..)))", "label_class": "Criterion met"}
{"sequence_content": "GTGCATCGAAAGATTCAC (((.(((....))).)))", "label_class": "Criterion met"}
{"sequence_content": "GCGCCTGGAAACAGACGC (((.(((....))).)))", "label_class": "Criterion not met"}
{"sequence_content": "GTCGTCGAAAGACACGAC ((((((....)))..)))", "label_class": "Criterion met"}
{"sequence_content": "GTGACTGGAAACGGTCAC (((((.(....).)))))", "label_class": "Criterion not met"}
{"sequence_content": "GAGCGACGAAAGTCACTC (((.(((....))).)))", "label_class": "Criterion not met"}
